Values from patent US8492589B2

- MEASURED TARGET: isomerase (Mus musculus, UniProt Q91ZQ5)
- Construct: The recovery of 11-cis-retinal after bleaching can be used to estimate the activity of isomerase in vivo; from tissue; host or cells: eyes of living CD-1 and Balb/c male mice
- Sequence (Q91ZQ5 1-533): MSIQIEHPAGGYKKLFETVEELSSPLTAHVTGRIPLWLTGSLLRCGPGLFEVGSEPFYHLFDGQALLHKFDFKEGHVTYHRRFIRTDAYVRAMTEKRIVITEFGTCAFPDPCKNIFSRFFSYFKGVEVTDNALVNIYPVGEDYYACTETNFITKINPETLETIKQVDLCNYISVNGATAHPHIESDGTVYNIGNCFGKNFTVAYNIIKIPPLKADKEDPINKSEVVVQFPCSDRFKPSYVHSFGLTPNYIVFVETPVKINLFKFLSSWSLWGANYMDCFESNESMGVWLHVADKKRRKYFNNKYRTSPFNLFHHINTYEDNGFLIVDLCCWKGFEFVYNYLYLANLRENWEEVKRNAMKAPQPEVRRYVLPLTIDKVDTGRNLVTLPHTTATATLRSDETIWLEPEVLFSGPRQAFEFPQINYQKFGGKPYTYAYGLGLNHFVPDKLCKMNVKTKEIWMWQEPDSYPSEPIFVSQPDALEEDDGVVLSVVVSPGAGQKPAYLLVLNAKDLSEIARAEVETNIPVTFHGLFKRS
- EXPERIMENT: In vivo murine isomerase assay (recovery of 11-cis-retinal after photobleaching)
- Parameters: species or system mice
- RUN CONDITIONS: mouse; 1 mg/kg, 24 h; read-out: % Inibition
Assignment: determine reported inhibition in vivo at 1 mg/kg for the given compounds.
The figure you give is taken to be in %; do not add the unit.

What measured inhibition in vivo at 1 mg/kg goes with NCCC(O)c1cccc(C#CCCCCO)c1 (centres unmarked) ?
31

What measured inhibition in vivo at 1 mg/kg goes with `CCC(O)(C#Cc1cccc(OCCN)c1)CC` ?
6

What measured inhibition in vivo at 1 mg/kg goes with `CCC(O)(C#Cc1cccc(CCCN)c1)CC` ?
0

What measured inhibition in vivo at 1 mg/kg goes with `NCCCc1cccc(C#CC2(O)CCCC2)c1` ?
0

What measured inhibition in vivo at 1 mg/kg goes with NCCC(O)c1cccc(C#CCCc2ccccc2)c1 (centres unmarked) ?
10

What measured inhibition in vivo at 1 mg/kg goes with `NCCOc1cccc(C#CC2CCCCC2)c1` ?
0

What measured inhibition in vivo at 1 mg/kg goes with `NCCCc1cccc(C#Cc2ccccn2)c1` ?
0

What measured inhibition in vivo at 1 mg/kg goes with `NCCCc1cccc(C#CC2(O)CCCCC2)c1` ?
0

What measured inhibition in vivo at 1 mg/kg goes with `NCCOc1cccc(C#CCCCCO)c1` ?
0

What measured inhibition in vivo at 1 mg/kg goes with `CC(=O)NCCCc1cccc(C#CC2(O)CCCCC2)c1` ?
9

What measured inhibition in vivo at 1 mg/kg goes with `NCCOc1cccc(C#CC2(O)CCSCC2)c1` ?
7

====

- MEASURED TARGET: visual cycle isomerase (Bovine RPE microsome membranes) (Bos taurus)
- Construct: Bovine Retinal Pigment Epithelium (RPE) microsome membranes were the source of a visual cycle isomerase; from tissue; host or cells: bovine retinal pigment epithelium microsome membranes
- Sequence (Q28175 2-533 limits assumed): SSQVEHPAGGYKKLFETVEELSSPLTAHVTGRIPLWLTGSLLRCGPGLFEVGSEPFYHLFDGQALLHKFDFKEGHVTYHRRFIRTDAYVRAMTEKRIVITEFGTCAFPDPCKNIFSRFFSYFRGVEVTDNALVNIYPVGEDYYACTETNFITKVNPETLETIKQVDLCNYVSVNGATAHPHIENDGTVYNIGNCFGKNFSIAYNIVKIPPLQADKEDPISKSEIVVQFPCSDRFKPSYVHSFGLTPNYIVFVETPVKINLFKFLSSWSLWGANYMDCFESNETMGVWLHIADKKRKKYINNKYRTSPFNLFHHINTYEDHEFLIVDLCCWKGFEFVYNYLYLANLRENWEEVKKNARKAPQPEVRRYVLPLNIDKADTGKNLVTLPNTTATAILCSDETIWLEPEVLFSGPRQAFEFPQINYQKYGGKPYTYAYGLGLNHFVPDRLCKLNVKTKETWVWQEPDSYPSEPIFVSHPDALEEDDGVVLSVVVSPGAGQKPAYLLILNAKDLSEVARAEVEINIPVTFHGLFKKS
- EXPERIMENT: In vitro isomerase inhibition assay, bovine RPE microsome membranes
- Type: biochemical
- RUN CONDITIONS: bovine RPE microsomes; 11-cis retinol formation
TEST READOUT: IC50

What measured IC50 goes with `CC(C)C(O)(C#Cc1cccc(OCCN)c1)C(C)C` ?
≤ 1 µM

What measured IC50 goes with `NCCCc1cccc(C#Cc2cccc(C(F)(F)F)c2)c1` ?
≤ 100 µM

What measured IC50 goes with CC(O)CC#Cc1cccc(CCCN)c1 (centres unmarked) ?
≤ 10 µM

What measured IC50 goes with `CCCCC[C@@H](O)C#Cc1cccc(CCCN)c1` ?
≤ 1 µM

What measured IC50 goes with NCCC(O)c1cccc(C#CCCCCO)c1 (centres unmarked) ?
≤ 1 µM

What measured IC50 goes with `NCCCc1cccc(C#CC2CCCCC2)c1` ?
≤ 1 µM

What measured IC50 goes with `Cc1cccc(C#Cc2cccc(CCCN)c2)c1` ?
≤ 100 µM

What measured IC50 goes with NCCC(O)c1cccc(C#CCCO)c1 (centres unmarked) ?
≤ 1 µM

What measured IC50 goes with `NCCOc1cccc(C#CC2(O)CCCC2)c1` ?
≤ 1 µM

What measured IC50 goes with `NCCOc1cccc(C#CCCO)c1` ?
≤ 100 µM

What measured IC50 goes with `COc1ccccc1C#Cc1cccc(CCCN)c1` ?
≤ 1 µM
